The measured values listed here are drawn from paper PMC8568530.

Test system: BAX
Experiment: BAX level in HepG-2 cells
Format: cell-based, human
Settings: HepG-2 cells, versus control
Returns met if the recorded BAX Fold is greater than or equal to 10 fold, and not met otherwise.

Here's what some known entries look like.
{"COMPOUND": "O=C(NNC(=O)C(F)(F)F)c1ccc(NC(=O)c2cccnc2)cc1", "GROUP": "met"}
{"COMPOUND": "COc1cccc(NC(=O)c2ccc(NC(=O)c3cccnc3)cc2)c1", "GROUP": "met"}
{"COMPOUND": "O=C(CSc1nnc(-c2cccnc2)o1)Nc1ccc(Cl)cc1 [Compound 18a]", "GROUP": "not met"}
{"COMPOUND": "O=C(CSc1nnc(-c2cccnc2)o1)Nc1ccccc1 [Compound 18b]", "GROUP": "not met"}
{"COMPOUND": "O=C(Nc1ccc(F)cc1)c1ccc(NC(=O)c2cccnc2)cc1", "GROUP": "met"}
{"COMPOUND": "CN(C)c1ccc(/C=N/NC(=O)c2ccc(NC(=O)c3cccnc3)cc2)cc1 [Compound 11g]", "GROUP": "not met"}
{"COMPOUND": "COc1ccc(/C=N/NC(=O)c2ccc(NC(=O)c3cccnc3)cc2)cc1 [Compound 11d]", "GROUP": "met"}
{"COMPOUND": "O=C(N/N=C/c1ccc([N+](=O)[O-])cc1)c1ccc(NC(=O)c2cccnc2)cc1 [Compound 11c]", "GROUP": "not met"}

Request: Does BAX Fold meet or surpass 10 fold for `O=C(Nc1ccc(C(=O)NC2CCCCC2)cc1)c1cccnc1` ?
Response: met

Request: Assess whether reported BAX Fold for O=C(N/N=C/c1ccccc1Cl)c1ccc(NC(=O)c2cccnc2)cc1 [Compound 11f] sits at 10 fold or higher.
Response: not met

Request: Hi, just wondering whether `COc1ccc(NC(=O)c2ccc(NC(=O)c3cccnc3)cc2)cc1` shows BAX Fold of 10 fold or higher.
Response: met
